# measurement.target: T1, 4H2717-bN
# T1 chain: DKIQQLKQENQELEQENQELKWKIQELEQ
# assay.method.text: two-hybrid library CCNG1;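 further: natural log of median RNA to DNA barcode read ratio; higher means stronger binding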
Give Condition met when the value for interaction score is at least -0.4. Give Condition not met when it is less.

| binder | label.class |
| --- | --- |
| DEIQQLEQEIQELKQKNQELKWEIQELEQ [4H121-bN] | Condition met |
| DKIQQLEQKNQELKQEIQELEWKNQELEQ [4H2503-bN] | Condition not met |
| DKIQQLKQENQELEQENQELKWKIQELEQ [4H2717-bN] | Condition met |
| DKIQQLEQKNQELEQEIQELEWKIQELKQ [4H2438-bN] | Condition not met |

Read the next record carefully.
Quick check, interaction score >= -0.4? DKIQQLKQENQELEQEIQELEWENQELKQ [4H2692-bN]
Condition not met

Numbers sourced from paper PMC10397247.
